Below is a list of entries, each paired with its recorded per_control_10000nM FLT3(ITD) value.
test system: FLT3(ITD); test: Eurofins/DiscoverX cell free kinase assay, percent control; assay type: binding; settings: 10000 nM compound
Reply with the number, then its unit.

Sample records with per_control_10000nM FLT3(ITD):
molecule="COc1ccc(-c2cc(NC(=O)c3ccc(C(C)(C)C)cc3)[nH]n2)cc1 [Compound 3i-1103]" recorded_measurement="2.1 percent control"
molecule="Cn1cc(-c2cc(NC(=O)c3ccc(C(C)(C)C)cc3)n[nH]2)ccc1=O [Compound 3i-1248]" recorded_measurement="12 percent control"
molecule="CC(C)(C)c1ccc(C(=O)Nc2cc(-c3ccccc3)n[nH]2)cc1 [Compound 3i-1247]" recorded_measurement="12 percent control"

## Task Entry Cc1cc(-c2cc(NC(=O)c3ccc(C(C)(C)C)cc3)[nH]n2)ccn1 [Compound 3i-1246] has what per_control_10000nM FLT3(ITD)?
## Result 1.2 percent control

* * *

Catalogue of per_control_1000nM TAF1(2) values
target: TAF1(2) (Homo sapiens, UniProt P21675); construct: with specific focus on TAF1(2) bromodomain assessed by the KdELECT assay; purchased Eurofins/DiscoverX; assay: Eurofins/DiscoverX cell free bromodomain assay, percent control; format: binding; settings: 1000 nM compound
Sequence (P21675 1519-1628 limits assumed): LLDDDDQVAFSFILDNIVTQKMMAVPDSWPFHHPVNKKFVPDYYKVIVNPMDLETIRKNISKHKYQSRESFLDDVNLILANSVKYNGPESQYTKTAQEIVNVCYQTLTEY
State just the number; it will be interpreted in percent control.

molecule=CC(C)(C)c1ccc(C(=O)Nc2cc(-c3ccccc3)n[nH]2)cc1 recorded_metric="per_control_1000nM TAF1(2)" recorded_measurement=97
molecule=Cc1cc(-c2cc(NC(=O)c3ccc(C(C)(C)C)cc3)[nH]n2)ccn1 recorded_metric="per_control_1000nM TAF1(2)" recorded_measurement=4.1

## Task Which per_control_1000nM TAF1(2) is reported for this molecule? COc1ccc(-c2cc(NC(=O)c3ccc(C(C)(C)C)cc3)[nH]n2)cc1
## Result 21

## Task What value of per_control_1000nM TAF1(2) has been reported for the following molecule? Cn1cc(-c2cc(NC(=O)c3ccc(C(C)(C)C)cc3)n[nH]2)ccc1=O
## Result 0.3

* * *

Measured per_control_1000nM FLT3 accompanies every entry in the list below.
Target: FLT3 (Homo sapiens, UniProt P36888)
Construct: purchased Eurofins/DiscoverX
Sequence (P36888 27-993): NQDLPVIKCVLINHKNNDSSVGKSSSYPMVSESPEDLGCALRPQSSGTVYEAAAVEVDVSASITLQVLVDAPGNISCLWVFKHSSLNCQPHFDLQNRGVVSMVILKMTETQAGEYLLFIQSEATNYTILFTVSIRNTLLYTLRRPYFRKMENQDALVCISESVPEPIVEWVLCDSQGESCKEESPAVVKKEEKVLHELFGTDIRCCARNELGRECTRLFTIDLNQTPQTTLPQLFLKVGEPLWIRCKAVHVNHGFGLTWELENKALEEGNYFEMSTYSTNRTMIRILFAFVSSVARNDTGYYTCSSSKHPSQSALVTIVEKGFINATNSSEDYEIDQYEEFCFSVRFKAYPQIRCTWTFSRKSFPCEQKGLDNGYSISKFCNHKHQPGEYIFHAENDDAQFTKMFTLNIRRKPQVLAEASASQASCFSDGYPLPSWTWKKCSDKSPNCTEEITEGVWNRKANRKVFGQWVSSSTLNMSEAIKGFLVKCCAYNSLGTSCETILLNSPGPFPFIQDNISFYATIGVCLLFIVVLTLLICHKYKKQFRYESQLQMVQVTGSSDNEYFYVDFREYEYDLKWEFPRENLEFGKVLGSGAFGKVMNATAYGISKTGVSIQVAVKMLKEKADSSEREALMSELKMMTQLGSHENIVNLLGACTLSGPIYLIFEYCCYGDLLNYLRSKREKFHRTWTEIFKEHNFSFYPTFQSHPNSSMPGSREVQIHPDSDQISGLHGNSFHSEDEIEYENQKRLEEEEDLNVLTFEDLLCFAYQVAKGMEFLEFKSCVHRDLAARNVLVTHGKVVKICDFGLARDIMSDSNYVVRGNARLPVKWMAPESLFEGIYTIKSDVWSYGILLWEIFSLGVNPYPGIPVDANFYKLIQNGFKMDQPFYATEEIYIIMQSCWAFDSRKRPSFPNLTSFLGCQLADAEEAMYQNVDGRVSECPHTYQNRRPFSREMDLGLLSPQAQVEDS
Test: Eurofins/DiscoverX cell free kinase assay, percent control
Type: binding
Conditions: 1000 nM compound
Reply numerically in percent control, unit not repeated.

## Task Given the molecule Cn1cc(-c2cc(NC(=O)c3ccc(C(C)(C)C)cc3)n[nH]2)ccc1=O [Compound 3i-1248] , what is its reported per_control_1000nM FLT3?
## Result 6.7

* * *

target: KIT (Homo sapiens, UniProt P10721); construct: purchased Eurofins/DiscoverX; experiment: Eurofins/DiscoverX cell free kinase assay, percent control; type: binding; settings: 10000 nM compound
Sequence (P10721 26-976): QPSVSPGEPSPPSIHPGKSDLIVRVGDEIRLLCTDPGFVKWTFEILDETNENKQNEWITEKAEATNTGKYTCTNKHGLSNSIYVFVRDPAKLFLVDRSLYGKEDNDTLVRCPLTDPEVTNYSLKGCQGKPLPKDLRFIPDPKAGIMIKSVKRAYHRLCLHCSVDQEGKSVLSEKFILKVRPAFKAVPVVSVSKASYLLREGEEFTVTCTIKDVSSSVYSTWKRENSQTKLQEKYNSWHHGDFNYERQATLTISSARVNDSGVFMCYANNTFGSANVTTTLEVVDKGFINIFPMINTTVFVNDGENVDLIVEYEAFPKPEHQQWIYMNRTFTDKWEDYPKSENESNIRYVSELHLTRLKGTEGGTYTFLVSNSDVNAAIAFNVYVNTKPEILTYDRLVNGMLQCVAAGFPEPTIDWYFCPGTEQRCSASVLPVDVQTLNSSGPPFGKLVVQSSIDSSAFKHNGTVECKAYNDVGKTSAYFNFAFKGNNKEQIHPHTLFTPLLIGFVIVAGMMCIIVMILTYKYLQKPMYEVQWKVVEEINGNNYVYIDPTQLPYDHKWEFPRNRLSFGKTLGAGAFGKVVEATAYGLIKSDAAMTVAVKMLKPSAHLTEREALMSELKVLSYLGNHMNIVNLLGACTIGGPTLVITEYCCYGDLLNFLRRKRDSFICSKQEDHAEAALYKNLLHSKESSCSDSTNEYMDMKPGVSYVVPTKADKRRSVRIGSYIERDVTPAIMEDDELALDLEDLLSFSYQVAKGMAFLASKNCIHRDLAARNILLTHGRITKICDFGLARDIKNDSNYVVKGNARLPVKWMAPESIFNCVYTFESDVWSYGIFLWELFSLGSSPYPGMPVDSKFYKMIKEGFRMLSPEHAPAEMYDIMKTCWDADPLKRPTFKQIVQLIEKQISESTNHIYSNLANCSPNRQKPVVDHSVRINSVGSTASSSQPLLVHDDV
recorded-metric: per_control_10000nM KIT (percent control)
All answers are understood in percent control, so give the number only.

molecule="CC(C)(C)c1ccc(C(=O)Nc2cc(-c3ccccc3)n[nH]2)cc1 [Compound 3i-1247]" measurement_target="KIT (Homo sapiens, UniProt P10721)" recorded_metric="per_control_10000nM KIT" recorded_measurement=0
molecule="COc1ccc(-c2cc(NC(=O)c3ccc(C(C)(C)C)cc3)[nH]n2)cc1 [Compound 3i-1103]" measurement_target="KIT (Homo sapiens, UniProt P10721)" recorded_metric="per_control_10000nM KIT" recorded_measurement=0
molecule="Cc1cc(-c2cc(NC(=O)c3ccc(C(C)(C)C)cc3)[nH]n2)ccn1 [Compound 3i-1246]" measurement_target="KIT (Homo sapiens, UniProt P10721)" recorded_metric="per_control_10000nM KIT" recorded_measurement=0

## Task Short answer please: per_control_10000nM KIT, KIT (Homo sapiens, UniProt P10721), entry Cn1cc(-c2cc(NC(=O)c3ccc(C(C)(C)C)cc3)n[nH]2)ccc1=O [Compound 3i-1248]
## Result 0.1

* * *

Listed below: per_control_1000nM FLT3(ITD,D835V) values for each entry.
Test system: FLT3(ITD,D835V)
Experiment: Eurofins/DiscoverX cell free kinase assay, percent control
Type: binding
Details: 1000 nM compound
Method: The 3i-compounds underwent activity testing against a panel of 32 bromodomains using the Eurofins/DiscoverX bromoMAX assay, with specific focus on TAF1(2) bromodomain assessed by the KdELECT assay. In a similar manner, kinase activity was evaluated using a panel of 97 kinase proteins using the Eurofins/DiscoverX scanELECT and KdELECT assays, with specific focus on FLT3 protein. […]
Hi! Could you send only the number? It should be in percent control, unit omitted.

molecule="CC(C)(C)c1ccc(C(=O)Nc2cc(-c3ccccc3)n[nH]2)cc1 [Compound 3i-1247]" measurement_target=FLT3(ITD,D835V) recorded_measurement=11

## Task // lookup per_control_1000nM FLT3(ITD,D835V) for Cn1cc(-c2cc(NC(=O)c3ccc(C(C)(C)C)cc3)n[nH]2)ccc1=O [Compound 3i-1248]
## Result 5.3

## Task Look at this molecule and give its reported per_control_1000nM FLT3(ITD,D835V). COc1ccc(-c2cc(NC(=O)c3ccc(C(C)(C)C)cc3)[nH]n2)cc1 [Compound 3i-1103]
## Result 42

## Task Query (molecule): Cc1cc(-c2cc(NC(=O)c3ccc(C(C)(C)C)cc3)[nH]n2)ccn1 [Compound 3i-1246] ; field requested: per_control_1000nM FLT3(ITD,D835V)
## Result 0.55

* * *

molecular target: FLT3 (Homo sapiens, UniProt P36888); construct: purchased Eurofins/DiscoverX; assay: Eurofins/DiscoverX cell free kinase assay, percent control; format: binding; details: 1000 nM compound
recorded-metric: per_control_1000nM FLT3 (percent control)
Hi! Could you send only the number? It should be in percent control, unit omitted.

Recorded results for 2 compounds are shown here.
compound="COc1ccc(-c2cc(NC(=O)c3ccc(C(C)(C)C)cc3)[nH]n2)cc1 [Compound 3i-1103]" units="percent control" recorded_measurement=0
compound="CC(C)(C)c1ccc(C(=O)Nc2cc(-c3ccccc3)n[nH]2)cc1 [Compound 3i-1247]" units="percent control" recorded_measurement=12

Please turn your attention to the following entry.
## Task Fill in the blank: the reported per_control_1000nM FLT3 of Cc1cc(-c2cc(NC(=O)c3ccc(C(C)(C)C)cc3)[nH]n2)ccn1 [Compound 3i-1246] is ____.
## Result 0

Cited source for all entries: paper PMC11952222
